The reported numbers originate from patent US20260069588A1.

# assay_overview: clinical
# measurement_parameters: human, in vivo, 60 mg, Tmax

{"sample_smiles": "O=C1CC[C@H](N2Cc3cc(N4CCN(CC5CCN(c6ccc([C@@H]7c8ccc(O)cc8CC[C@@H]7c7ccccc7)cc6)CC5)CC4)ccc3C2=O)C(=O)N1", "Tmax / h": 6}

---

# assay_overview: clinical
# measurement_parameters: human, in vivo, 180 mg, Cmax
observation_type: Cmax (ng/mL)

{"sample_smiles": "O=C1CC[C@H](N2Cc3cc(N4CCN(CC5CCN(c6ccc([C@@H]7c8ccc(O)cc8CC[C@@H]7c7ccccc7)cc6)CC5)CC4)ccc3C2=O)C(=O)N1", "experimental_value": 555}

---

# assay_overview: clinical
# measurement_parameters: human, in vivo, 180 mg

{"molecule": "O=C1CC[C@H](N2Cc3cc(N4CCN(CC5CCN(c6ccc([C@@H]7c8ccc(O)cc8CC[C@@H]7c7ccccc7)cc6)CC5)CC4)ccc3C2=O)C(=O)N1 [Compound A]", "half-life, h": 26}
{"molecule": "O=C1CC[C@@H](N2Cc3cc(N4CCN(CC5CCN(c6ccc([C@@H]7c8ccc(O)cc8CC[C@@H]7c7ccccc7)cc6)CC5)CC4)ccc3C2=O)C(=O)N1 [Compound B]", "half-life, h": 92}

---

# assay_overview: 3-month GLP oral toxicity study in dogs
# Assay type: in vivo, dog
# measurement_parameters: Beagle, dog, plasma, po; male dogs, 90 mg/kg/day, Day 91; read-out: AUC0-24
observation_type: AUC(0-t) (ng·h/mL)

{"compound": "O=C1CC[C@H](N2Cc3cc(N4CCN(CC5CCN(c6ccc([C@@H]7c8ccc(O)cc8CC[C@@H]7c7ccccc7)cc6)CC5)CC4)ccc3C2=O)C(=O)N1 [Compound A]", "experimental_value": 83500}

---

Consider the following compounds and their measured half-life readings.
# assay_overview: clinical
# measurement_parameters: human, in vivo, 200 mg

{"sample_smiles": "O=C1CC[C@@H](N2Cc3cc(N4CCN(CC5CCN(c6ccc([C@@H]7c8ccc(O)cc8CC[C@@H]7c7ccccc7)cc6)CC5)CC4)ccc3C2=O)C(=O)N1", "half-life / h": 85}
{"sample_smiles": "O=C1CC[C@H](N2Cc3cc(N4CCN(CC5CCN(c6ccc([C@@H]7c8ccc(O)cc8CC[C@@H]7c7ccccc7)cc6)CC5)CC4)ccc3C2=O)C(=O)N1", "half-life / h": 23}

---

# assay_overview: 3-month GLP oral toxicity study in rats
# Format: in vivo, rat
# measurement_parameters: female, rat, in vivo, po, 300 mg/kg/day

{"sample_smiles": "O=C1CC[C@H](N2Cc3cc(N4CCN(CC5CCN(c6ccc([C@@H]7c8ccc(O)cc8CC[C@@H]7c7ccccc7)cc6)CC5)CC4)ccc3C2=O)C(=O)N1", "AUC(0-t) (ng·h/mL)": 75000}

---

# assay_overview: Preliminary embryo-fetal development study
# measurement_parameters: female, Sprague-Dawley, rat, in vivo, oral, 30 mg/kg/day
observation_type: AUC(0-t) (ng·h/mL)

{"compound": "O=C1CC[C@H](N2Cc3cc(N4CCN(CC5CCN(c6ccc([C@@H]7c8ccc(O)cc8CC[C@@H]7c7ccccc7)cc6)CC5)CC4)ccc3C2=O)C(=O)N1 [Compound A]", "result_unit": "ng·h/mL", "experimental_value": 4380}

---

# assay_overview: clinical
# measurement_parameters: human, in vivo, 200 mg, Cmax

{"compound": "O=C1CC[C@H](N2Cc3cc(N4CCN(CC5CCN(c6ccc([C@@H]7c8ccc(O)cc8CC[C@@H]7c7ccccc7)cc6)CC5)CC4)ccc3C2=O)C(=O)N1 [Compound A]", "Cmax (ng/mL)": 534}
